Test system: NCI/ADR-RES ovarian
test.description: NCI tumour cell line growth inhibition, 48 h; in the data active means GI50 below about 0.43 µM; inactive means the rest
Give one outcome, nothing more. List: True (active), False (inactive)

Q: // outcome(item) with item = `COc1ccc(-c2cncn2-c2ccc(OC)cc2)cc1`
A: False

Q: Same question, `CN(C)C(=S)N=Nc1c(O)[nH]c2ccccc12` this time
A: True

Q: # iterate: `Clc1nc(Cl)c2ncn(Cc3ccc(COc4cccc(OCc5ccc(Cn6cnc7c(Cl)nc(Cl)nc76)cc5)c4)cc3)c2n1`
A: False

Q: And then `Fc1cccc(COc2ccc(Nc3ncnc4cc(-c5ccc[nH]5)sc34)cc2Cl)c1` , what is it?
A: False

Q: Now the compound `O=C1/C(=C/c2ccc(O)cc2)COc2ccc(-c3ccccc3)cc21`
A: False

Q: Moving on to the next compound: `CCN(Cc1ccccc1OC)c1ccc(CO)c(Cl)c1`
A: False

Q: // query: `CCCCCCCCCCCC[n+]1ccc(CCCCCCCCC)cc1`
A: False

Q: Query `NC(C(=O)[O-])C(=O)[O-].NC1CCCCC1N.[Pt+4]` next
A: False

Q: Next: COc1ccc2c(c1)OC(N(C(C)=O)C(C)=O)=C(C#N)C2c1ccc(F)cc1 (stereo not drawn)
A: False

Q: Also `CCOc1ccc(NCc2cc(OC)c(OC)c(OC)c2)cc1` ?
A: False

Q: Now the compound `CCN(CC)C(=S)SS(=O)(=O)c1ccc([N+](=O)[O-])cc1`
A: False

Q: Please answer likewise for `CC(C)(C)c1ccc(S(=O)(=O)N[C@H]2CC[C@H]3[C@@H]4CCc5cc(OS(=O)(=O)O)ccc5[C@H]4CC[C@]23C)cc1`
A: False

Q: Please answer likewise for `ClCc1c(Cl)c(Cl)c(Cl)c(CCl)c1Cl`
A: False
